Test system: MS2 coat protein
Assay: apparent KD of MS2 coat protein; designed switch direction (-1 OFF switch, 1 ON switch): -1; higher = weaker reporter binding
Settings: input ligand: FMN 200 uM
Catalogue of apparent KD of MS2 coat protein readings, one per entry.
Give the value, in units of nM, as a plain number.

INSERT INTO results (construct_sequence, tgt, reported_metric, unit_label, value) VALUES
  ('CUGCUCCGUGUAGGAUAUGCAUGCAACCAAUAUGCAGAAGGACAUGAGGAUCACCCAUGUAUGUUAUUAUCACGUGAAGCGUCC [Design 22] (Eterna round: R96, puzzle: Exclusion NG 1)', 'MS2 coat protein', 'apparent KD of MS2 coat protein', 'nM', 27.1),
  ('ACAUGAGGAUCACCCAUGUUAGGUUGGUUUUCUCCGGCUGUUGAGGAUAUAGUCCGGUAUCCGCGCUAGAAGGUGAGGGUUGGC [Aenatbe mod 9] (Eterna round: R96, puzzle: Exclusion NG 3)', 'MS2 coat protein', 'apparent KD of MS2 coat protein', 'nM', 61.9),
  ('UAAGUUUACCGAGGAUAUGGUCAAUAAUUAUGACCAGAAGGCGGACUCAACAUGAGGAUCACCCAUGUAUAAAGGGUAAUUGGU [JR_ExcNG1_Sub047] (Eterna round: R96, puzzle: Exclusion NG 1)', 'MS2 coat protein', 'apparent KD of MS2 coat protein', 'nM', 154);

Give the reported apparent KD of MS2 coat protein for ACCUCACUUGAGGAUCACCCAAGUCAGGAUAUACUCGUUUGCCGCACGACGCGGCAUUGUAGAAGGGACGGGCU [Soraedrale] (Eterna round: R97, puzzle: Exclusion 1) (system: MS2 coat protein).
34.1

Can you handle UGUAGAGUGGUAGGAUAUCCGGCUGUUUCAGUCGGAGAAGGACCACAGUCACUGGGUCCUUAUAUGGGUGACCAUGUAUCUACU [pwkr exNG1 F6.7] (Eterna round: R96, puzzle: Exclusion NG 1) next?
558
